Entries and their self-cleavage values follow.
B1: Hairpin Ribozyme (parent)
chain: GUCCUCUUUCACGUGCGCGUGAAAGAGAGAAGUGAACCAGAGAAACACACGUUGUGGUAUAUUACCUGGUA

# Variants of: B1
# Assay procedure: self-cleavage, relative activity (ratio to wild type); higher = more cleavage; co-transcriptional
Lab note: write the figure by itself, no unit.

| Variant name | Measurement |
| --- | --- |
| U8C A59G | 0.203 |
| U2A A41U | 0.54 |
| U8A A28U | 0.613 |
| U62C G68A | 0.2 |
| G29A C66U | 0.194 |
| C6A C66G | 0.109 |
| U53C C65U | 0.274 |
| U58C A64G | 0.502 |

Param item = U60C A71U ; retrieve measured self-cleavage.
1.18

Param item = U9A A47C ; retrieve measured self-cleavage.
0.205

Param item = C3U G69C ; retrieve measured self-cleavage.
0.185

These measurements were taken from the RNAGym collection of RNA variant scans (doi:10.7554/elife.80360).
